// data source = paper PMC10397247

Biological target: T1, 4H331-bA
T1 chain: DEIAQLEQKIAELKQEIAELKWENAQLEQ
Assay: two-hybrid library CCNG1;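 further: natural log of median RNA to DNA barcode read ratio; higher means stronger binding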
quantity_measured: interaction score

{"columns": ["binder", "interaction score"],
 "data": [
  ["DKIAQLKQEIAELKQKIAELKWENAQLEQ [4H2667-bA]", 0.846]
]}

Consider the additional binder presented here.
Looking for the measured interaction score of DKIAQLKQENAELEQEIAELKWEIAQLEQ [4H2697-bA] , can you help?
-1.52
